Cited source: patent US20050282743A1

target: GST-PSD95 PDZ domain 1 (Homo sapiens); assay: G' assay; further: key of the grades not given here
METRIC: Classification (A450 class)
Give bare numbers, in A450 class.

Known Classification results, listed for orientation:
binder="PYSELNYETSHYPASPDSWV (modifications not checked) [catenin - delta 2]" metric=Classification numeric_value=1
binder="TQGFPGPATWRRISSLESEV (modifications not checked) [NMDA Glutamate Receptor 2C (cysteine-free)]" metric=Classification numeric_value=5
binder="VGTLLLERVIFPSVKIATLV (modifications not checked) [AdenoE4 typ9]" metric=Classification numeric_value=4
binder="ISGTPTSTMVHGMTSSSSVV (modifications not checked) [Clasp-2]" metric=Classification numeric_value=1
binder="SFTSILTCHQRRTQRKETVA (modifications not checked) [GluR5-2 (rat)]" metric=Classification numeric_value=3

Tell me the measured Classification of QISPGGLEPPSEKHFRETEV (modifications not checked) [TAX] , please. 5
